Test system: EPHA6;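 note: KINOMEscan kinase panel screen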
RUN CONDITIONS: concentration: 1 μM,replicates: in singlicate; n = 1
Hi, to clarify the labels: rule met covers %Inh from 30% upward, rule not met covers anything below 30%.

INSERT INTO assay_data (compound, label) VALUES
  ('CCN(CC)CCOc1ccc(Nc2ncc3cc(-c4c(Cl)cccc4Cl)c(=O)n(C)c3n2)cc1 [SB-601273]', 'rule met'),
  ('Nc1nc(Nc2ccccc2)cc(-c2ccc3c(N)n[nH]c3c2)n1 [GSK2225749]', 'rule not met'),
  ('O=C(NCCNc1ccnc(NCc2ccc(F)cc2)n1)c1cc2ccccc2s1 [GSK1379944]', 'rule not met'),
  ('O=C(NCCCN1CCOC1=O)c1cnc(NCc2cc(Cl)ccc2Cl)nc1NC1CCCC1', 'rule not met'),
  ('Cl.Cl.NC[C@H](Cc1ccc(C(F)(F)F)cc1)NC(=O)c1cc(Br)c(-c2ccnc3[nH]ccc23)s1 [GSK1487252]', 'rule not met'),
  ('C[C@H]1Oc2cc(cnc2N)-c2c(nn(C)c2C#N)CN(C)C(=O)c2ccc(F)cc21', 'rule met'),
  ('CCn1c(-c2nonc2N)nc2c(C#CC(C)(C)O)nc(OCCN)cc21.Cl.Cl [GSK902056]', 'rule not met'),
  ('CN(C)CC(O)COc1ccc(Nc2nccc(-c3cnn4nc(N5CCOCC5)ccc34)n2)cc1 (stereo not drawn) [GW767488]', 'rule not met'),
  ('CCN(CC)CCCCNc1ncc2cc(-c3c(Cl)cccc3Cl)c(NC(=O)NC(C)(C)C)nc2n1', 'rule met'),
  ('Cc1ccc2c(-c3ccncc3)c(-c3ccc(F)cc3)nn2c1.Cl [GW461484]', 'rule not met'),
  ('Cc1n[nH]c2ccc(-c3cc(OC[C@@H](N)Cc4ccccc4)cnc3-c3ccoc3)cc12.O=C(O)C(F)(F)F.O=C(O)C(F)(F)F [GSK507358]', 'rule not met'),
  ('Cc1occc1-c1nc(N)c(OC[C@@H](N)Cc2c[nH]c3ccccc23)cc1-c1cc2c(C)n[nH]c2cn1 [GSK1660450]', 'rule met'),
  ('Cl.Cl.NC[C@H](CC1CCCCC1)NC(=O)c1cc(Br)c(-c2ccnc3[nH]ccc23)s1 [GSK1581427]', 'rule not met'),
  ('Cc1cc2cn[nH]c2cc1-c1cccc2c(N)c(C(N)=O)nnc12', 'rule not met'),
  ('CC(C)N1C(=O)Cc2cc(Nc3ncc(C(F)(F)F)c(NCc4cccc(S(C)(=O)=O)c4)n3)ccc21', 'rule not met');
